Data provenance is paper PMC6792352.

# EXPERIMENT NOTES: in vitro
# RUN PARAMETERS: rat, gh3-tre-luc cells, AC50 (uM) modified / 1000, Tox21_110001=Tox21_302297; viability, 1 nM T3 present, 24 h
METRIC: CC50 at 24 h

Data request, read-out CC50 at 24 h, for COc1ccccc1OC > 90 µM

----------
# EXPERIMENT NOTES: in vitro
# RUN PARAMETERS: rat, gh3-tre-luc cells, AC50 (uM) modified / 1000, Tox21_110001=Tox21_301414; viability, 1 nM T3 present, 24 h
METRIC: CC50 at 24 h

GET /values?readout=CC50 at 24 h&item= CCC(C)(C#N)N=NC(C)(C#N)CC (stereo not shown) > 90 µM

----------
# EXPERIMENT NOTES: in vitro
# RUN PARAMETERS: rat, gh3-tre-luc cells, AC50 (uM) modified / 1000, Tox21_110001=Tox21_200806; viability, 1 nM T3 present, 24 h
METRIC: CC50 at 24 h

Please report the recorded CC50 at 24 h for ClC(Cl)Br [Bromodichloromethane] . > 90 µM

----------
# EXPERIMENT NOTES: in vitro
# RUN PARAMETERS: rat, gh3-tre-luc cells, AC50 (uM) modified / 1000
METRIC: CC50 at 24 h

Which CC50 at 24 h reading was recorded for the molecule Cc1cc(O)c2c(c1)C(=O)c1cc(O)cc(O)c1C2=O [Emodin] ? 29.1 µM

Do the same for CCOC(=O)CC(=O)C(=O)OCC [Sodium diethyl oxaloacetate] please > 90 µM

What do you get for O=C1c2ccccc2C(=O)C1c1ccc(Br)cc1 [Bromindione] ? > 50 µM

Next molecule: CC(C)C1OCCN1CCOC(=O)NCCCCCCNC(=O)OCCN1CCOC1C(C)C (centres unmarked) > 90 µM

Proceed to the following item.
Item C[Si](NC1CCCCC1)(NC1CCCCC1)NC1CCCCC1 has what recorded CC50 at 24 h? > 90 µM

----------
# EXPERIMENT NOTES: in vitro
# RUN PARAMETERS: rat, gh3-tre-luc cells, AC50 (uM) modified / 1000, Tox21_110001=Tox21_200778; viability, 1 nM T3 present, 24 h
METRIC: CC50 at 24 h

# query: CC50 at 24 h of entry O=C(Cl)C(Cl)Cl [Dichloroacetyl chloride] > 90 µM

----------
# EXPERIMENT NOTES: in vitro
# RUN PARAMETERS: rat, gh3-tre-luc cells, AC50 (uM) modified / 1000
Counter-ions that a name gives are not always drawn. Positions of bridges follow the written chain, without caps; N, C: chain ends. Non-standard residues stand in square brackets, D forms with d. Residues, ends and D or L forms follow the SMILES beside them. *: point of attachment. X3 = CC[C@H](C)CCCCC(=O)*; Dab = NCC[C@H](N)C(=O)O
# reported CC50 at 24 h; entries follow

Use the examples below as a reference point.
Given CCNc1cc(O)ccc1C , state its recorded CC50 at 24 h. > 90 µM

// query: O=C(Oc1ccccc1)c1ccc(O)cc1 > 90 µM

And CCn1nc(C)c2c1C(=O)NCC(c1ccc(O)cc1)=N2 ? > 90 µM

What about CC/C=C/C#N ? > 90 µM

Here is the next compound: O=C(O)Cc1csc(-c2ccc(Cl)cc2)n1 > 50 µM

// next record CC(C)C1=CC2=CC[C@@H]3[C@](C)(CCC[C@@]3(C)C(=O)O)[C@H]2CC1 [Sodium abietate] 74.3 µM

Entry CC(C)[C@H](N)C(=O)OCCOCn1cnc2c(=O)[nH]c(N)nc21 [Valacyclovir hydrochloride] please > 50 µM

Then CSc1ccc(C=O)cc1 ? > 90 µM

Then this compound: CC[C@H](C)CCCCC(=O)N[C@@H](CCN)C(=O)N[C@H](C(=O)N[C@@H](CCN)C(=O)N[C@H]1CCNC(=O)[C@H]([C@@H](C)O)NC(=O)[C@H](CCN)NC(=O)[C@H](CCN)NC(=O)[C@H](CC(C)C)NC(=O)[C@@H](CC(C)C)NC(=O)[C@H](CCN)NC1=O)[C@@H](C)O [Colistin A] (X3-[Dab]T[Dab][Dab][Dab][dL]L[Dab][Dab]T; lactam 4-C) > 50 µM

Same thing, different compound: Cc1c(C)c2c(c(C)c1O)CC[C@@](C)(CCC[C@H](C)CCC[C@H](C)CCCC(C)C)O2 > 50 µM

Turning now to a further compound:
What value of measured CC50 at 24 h is listed for CCN(CC)C(=O)c1cccc(C)c1 ? > 90 µM

----------
# EXPERIMENT NOTES: in vitro
# RUN PARAMETERS: rat, gh3-tre-luc cells, AC50 (uM) modified / 1000
Counter-ions that a name gives are not always drawn.
The compounds listed here are annotated with their CC50 at 24 h.

Request the reported CC50 at 24 h associated with Cc1ccc(/N=C/N(C)/C=N/c2ccc(C)cc2C)c(C)c1 59 µM

What do we get for O=C=Nc1ccc(Cl)c(Cl)c1 [3,4-Dichlorophenyl isocyanate] ? > 90 µM

More entries:
I have this compound here, CC[C@H]1C[C@@H]2C[C@H]3c4[nH]c5ccc(OC)cc5c4CCN(C2)[C@@H]13 [Ibogaine hydrochloride] , and I need its recorded CC50 at 24 h. 62.4 µM

Field entry: Cc1cscn1 > 90 µM

Query CO[C@H]1/C=C/O[C@@]2(C)Oc3c(C)c(O)c4c(O)c(c5c(nc6cc(C)ccn65)c4c3C2=O)NC(=O)/C(C)=C\C=C\[C@H](C)[C@H](O)[C@@H](C)[C@@H](O)[C@@H](C)[C@H](OC(C)=O)[C@@H]1C next > 50 µM

Then C[C@]12CC[C@@H]3c4ccc(O)cc4CC[C@H]3[C@@H]1CC[C@@H]2O ? > 90 µM

Can you check CC(=O)Oc1cccc(C(=O)O)c1OC(C)=O next? > 50 µM

----------
Entries and their measured AC50 follow.
# ASSAY SYSTEM: TRα ligand-binding domain (Homo sapiens)
# Construct: the receptor LBDs expressed as glutathione S-transferase (GST) fusion proteins; purchased
# Sequence (P10827 163-410 isoform P10827-2 limits assumed, other chains not shown): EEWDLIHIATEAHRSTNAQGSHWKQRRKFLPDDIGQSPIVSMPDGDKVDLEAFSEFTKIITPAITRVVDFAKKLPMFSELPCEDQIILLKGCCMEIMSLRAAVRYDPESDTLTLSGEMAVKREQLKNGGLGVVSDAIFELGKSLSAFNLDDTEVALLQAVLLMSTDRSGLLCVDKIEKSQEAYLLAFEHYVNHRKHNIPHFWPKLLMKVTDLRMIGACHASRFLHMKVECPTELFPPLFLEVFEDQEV
# EXPERIMENT NOTES: TRa-coa LanthaScreen TR-FRET coactivator (SRC-2 peptide) recruitment, agonist (TOX21_TRA_COA_Agonist_Followup_ratio, aeid 2230)
# Assay type: biochemical
# RUN PARAMETERS: agonist; read-out: TRa-coa AC50

Would you mind telling me what AC50 value was observed for CN(C)c1ccc(N=O)cc1 ? > 92 µM

Similarly, CC1(C)COP(Oc2ccccc2)OC1 ? > 92 µM

Further cases:
What value of AC50 has been recorded for this entry: c1csc(-c2ccc(-c3cccs3)s2)c1 > 92 µM

----------
Consider the following compounds and their measured AC50 readings.
# EXPERIMENT NOTES: Global cytotoxicity: eighteen Tox21 cell viability assays
# Type: cell-based
# RUN PARAMETERS: median over 18 Tox21 cell viability assays; inactive set to 1,000; read-out: Global cytotoxicity AC50 median
Write the number in µM without appending the unit.

These solved cases illustrate the format of a correct answer.
Field request: AC50 | item: CCCCCCCCCCCCn1cc[n+](C)c1.[I-] [1-Dodecyl-3-methylimidazolium iodide] 41.1

Try CCCCCOc1ccc(C2SC(=O)NC2=O)cc1OCC (stereo not shown) [Risarestat, reference compound] next. 16.4

Next compound, please.
Any idea what its AC50 is? The compound is N#CC(c1ccc(Cl)cc1)c1c(Cl)cc(-n2ncc(=O)[nH]c2=O)cc1Cl (stereo not shown) 33

----------
# Tested on: GH3-TRE-Luc cell line
# RUN PARAMETERS: read-out: AC50 (uM) modified / 1000; Tox21_110001=Tox21_202817; viability, 1 nM T3 present, 24 h
Counter-ions that a name gives are not always drawn.
METRIC: CC50 (µM)
Number only, in µM; omit the unit.

Please look up its CC50: NC[C@H]1O[C@H](O[C@H]2[C@H](O)[C@@H](O[C@H]3O[C@H](CO)[C@@H](O)[C@H](N)[C@H]3O)[C@H](N)C[C@@H]2N)[C@H](O)[C@@H](O)[C@@H]1O [Kanamycin A sulfate] 3.08

----------
# System: GH3-TRE-Luc cell line
# RUN PARAMETERS: read-out: AC50 (uM) modified / 1000; Tox21_110001=Tox21_112347; viability, 1 nM T3 present, 24 h
METRIC: CC50 (µM)
Give just the numeric value; µM need not be written.

Quick one: CC50 for O=Cc1ccccc1C=O ? 8.06

----------
# EXPERIMENT NOTES: in vitro
# RUN PARAMETERS: rat, gh3-tre-luc cells, AC50 (uM) modified / 1000
Recorded measurements of CC50 at 24 h, one per entry

// worked examples, CC50 at 24 h included
// CC50 at 24 h lookup, key: CCCCOC(=O)CCS [Butyl 3-mercaptopropionate] > 90 µM

Further, for N#Cc1c(F)cccc1F ? > 90 µM

Now the compound NC(=O)NC(N)=O [Imidodicarbonic diamide] > 90 µM

More entries:
I would be grateful if you could share the reported CC50 at 24 h for Cc1ccc([N+](=O)[O-])cc1Cl . > 90 µM

Record: C#CCN1CC(=O)N(COC(=O)C2C(C=C(C)C)C2(C)C)C1=O (centres unmarked) > 50 µM
